Measured solubility kinetic of individual entries
assay: Kinetic solubility in PBS (UHPLC, method of Hoelke et al.); format: physicochemical; details: PBS, aqueous with cosolvent or surfactant or cyclodextrin, kinetic from dmso stock, 5% DMSO

Some entries whose results are on file:
1. CCCCOc1nc(N)c2nc(O)n(Cc3ccc(C(=O)NCCOCCNC(=O)CC[C@@H](NC(=O)[C@@H](NC(=O)CNC(=O)/C=C/c4ccc(O)c(OC)c4)C(C)C)C(=O)OCC)cc3)c2n1 [compound 2]	3.67 µM
2. CCOCc1nc2c(N)nc3ccccc3c2n1CC(C)(C)O [Resiquimod (6), Resiquimod, reference compound]	469 µM

Which solubility kinetic reading was recorded for the molecule CCCCOc1nc(N)c2nc(O)n(Cc3ccc(C(=O)O)cc3)c2n1 [compound 4, reference compound] ?
483 µM

Which solubility kinetic reading was recorded for the molecule CCCCOc1nc(N)c2nc(O)n(Cc3ccc(C(=O)NCCOCCOCCNC(=O)CC[C@@H](NC(=O)[C@@H](NC(=O)CNC(=O)/C=C/c4ccc(O)c(OC)c4)C(C)C)C(=O)OCC)cc3)c2n1 [compound 22] ?
85.4 µM

Which solubility kinetic reading was recorded for the molecule CCOCc1nc2c(N)nc3ccccc3c2n1CC(C)(C)N [compound 7, reference compound] ?
337 µM

----------
molecular target: human TLR7 (Homo sapiens, UniProt Q9NYK1); construct: host or cells: HEK-Blue TLR7 (HEK293-derived); experiment: HEK-Blue TLR7 NF-κB SEAP reporter assay; assay type: cell-based; settings: HEK-Blue TLR7 cells
Sequence (Q9NYK1 27-1049): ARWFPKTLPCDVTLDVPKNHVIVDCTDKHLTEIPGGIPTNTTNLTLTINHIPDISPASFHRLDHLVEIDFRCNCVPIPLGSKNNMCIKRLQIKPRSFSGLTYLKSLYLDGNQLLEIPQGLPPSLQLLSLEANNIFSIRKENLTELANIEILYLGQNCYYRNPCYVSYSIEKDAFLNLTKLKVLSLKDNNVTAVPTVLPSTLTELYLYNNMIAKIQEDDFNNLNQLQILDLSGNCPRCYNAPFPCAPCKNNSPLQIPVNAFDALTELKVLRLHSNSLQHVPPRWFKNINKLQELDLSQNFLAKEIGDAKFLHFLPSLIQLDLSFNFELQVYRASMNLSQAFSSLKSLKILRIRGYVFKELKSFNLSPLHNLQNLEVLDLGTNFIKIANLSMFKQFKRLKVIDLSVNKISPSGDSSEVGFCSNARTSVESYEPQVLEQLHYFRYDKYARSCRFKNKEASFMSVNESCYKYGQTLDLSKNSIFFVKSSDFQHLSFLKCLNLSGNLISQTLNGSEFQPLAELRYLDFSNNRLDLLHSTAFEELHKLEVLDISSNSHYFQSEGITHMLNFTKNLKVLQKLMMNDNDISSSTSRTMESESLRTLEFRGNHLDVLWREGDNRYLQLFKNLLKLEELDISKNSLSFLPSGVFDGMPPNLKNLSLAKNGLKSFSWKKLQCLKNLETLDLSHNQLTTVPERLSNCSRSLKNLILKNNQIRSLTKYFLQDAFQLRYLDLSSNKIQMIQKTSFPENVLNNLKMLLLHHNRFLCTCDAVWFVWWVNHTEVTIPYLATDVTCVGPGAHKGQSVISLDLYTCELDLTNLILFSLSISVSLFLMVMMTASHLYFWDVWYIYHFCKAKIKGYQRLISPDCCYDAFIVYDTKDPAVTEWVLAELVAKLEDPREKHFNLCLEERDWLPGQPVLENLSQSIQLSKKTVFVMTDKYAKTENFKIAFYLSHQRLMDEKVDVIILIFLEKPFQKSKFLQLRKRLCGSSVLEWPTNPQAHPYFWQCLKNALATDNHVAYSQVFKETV
reported.metric: pEC50
The value called pEC50 is obtained by taking minus log10 of the concentration in mol/L.

Can you look up pEC50 on human TLR7 (Homo sapiens, UniProt Q9NYK1) for CCOCc1nc2c(N)nc3ccccc3c2n1CC(C)(C)NC(=O)CCCCCNC(=O)CC[C@@H](NC(=O)[C@@H](NC(=O)CNC(=O)/C=C/c1ccc(O)c(OC)c1)C(C)C)C(=O)OCC [compound 33] ?
5.28

----------
assay: Kinetic solubility in PBS (UHPLC, method of Hoelke et al.); type: physicochemical; conditions: PBS, aqueous with cosolvent or surfactant or cyclodextrin, kinetic from dmso stock, 5% DMSO
reported.metric: solubility kinetic (µM)
// units = µM; emit number, no label

1) CCOCc1nc2c(NC(=O)CCCCCNC(=O)CC[C@@H](NC(=O)[C@@H](NC(=O)CNC(=O)/C=C/c3ccc(O)c(OC)c3)C(C)C)C(=O)OCC)nc3ccccc3c2n1CC(C)(C)O	437
2) CCOC(=O)CCC(NC(=O)C(NC(=O)CNC(=O)C=Cc1ccc(O)c(OC)c1)C(C)C)C(=O)OCC (stereo not drawn)	415

Which solubility kinetic reading was recorded for the molecule "CCCCOc1nc(N)c2nc(O)n(Cc3ccc(C(=O)NCCOCCOCCNC(=O)[C@@H](CCC(=O)OCC)NC(=O)[C@@H](NC(=O)CNC(=O)/C=C/c4ccc(O)c(OC)c4)C(C)C)cc3)c2n1" ?
9.2

----------
biological target: human NOD2 (Homo sapiens, UniProt Q9HC29); construct: host or cells: HEK-Blue NOD2 (HEK293-derived); test: HEK-Blue NOD2 NF-κB SEAP reporter assay; type: cell-based; settings: HEK-Blue NOD2 cells, 18 h, eight concentrations (1 nM to 10 μM), mean ± SEM
Sequence (Q9HC29 whole entry): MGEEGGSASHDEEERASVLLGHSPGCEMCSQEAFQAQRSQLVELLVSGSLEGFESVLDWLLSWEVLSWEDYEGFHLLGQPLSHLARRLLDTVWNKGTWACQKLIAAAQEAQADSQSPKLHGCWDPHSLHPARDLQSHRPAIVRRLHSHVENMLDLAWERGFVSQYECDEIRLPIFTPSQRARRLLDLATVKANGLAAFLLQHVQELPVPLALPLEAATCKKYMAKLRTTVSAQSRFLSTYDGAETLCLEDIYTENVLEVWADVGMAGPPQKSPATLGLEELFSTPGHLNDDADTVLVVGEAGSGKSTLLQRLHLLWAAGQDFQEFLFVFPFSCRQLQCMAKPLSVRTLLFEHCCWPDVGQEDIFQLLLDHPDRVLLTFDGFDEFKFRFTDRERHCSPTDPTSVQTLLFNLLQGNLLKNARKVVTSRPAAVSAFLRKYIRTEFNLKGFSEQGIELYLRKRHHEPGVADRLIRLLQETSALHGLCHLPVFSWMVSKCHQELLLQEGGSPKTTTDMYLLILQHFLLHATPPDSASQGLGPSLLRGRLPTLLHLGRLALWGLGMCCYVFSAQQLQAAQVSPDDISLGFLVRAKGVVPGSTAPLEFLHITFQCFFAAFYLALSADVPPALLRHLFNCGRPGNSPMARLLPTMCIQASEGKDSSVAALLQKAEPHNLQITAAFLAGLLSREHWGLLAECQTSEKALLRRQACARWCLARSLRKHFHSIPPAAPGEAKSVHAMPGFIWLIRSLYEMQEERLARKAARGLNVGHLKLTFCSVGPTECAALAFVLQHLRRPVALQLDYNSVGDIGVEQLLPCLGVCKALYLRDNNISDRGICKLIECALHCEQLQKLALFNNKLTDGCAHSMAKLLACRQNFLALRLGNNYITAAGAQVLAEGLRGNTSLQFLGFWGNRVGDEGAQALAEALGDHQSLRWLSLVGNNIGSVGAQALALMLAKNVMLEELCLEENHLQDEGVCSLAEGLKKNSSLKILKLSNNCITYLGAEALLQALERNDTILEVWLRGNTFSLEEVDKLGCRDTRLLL
pEC50: −log10 of the molar value.
reported.metric: pEC50

1. CCCCOc1nc(N)c2nc(O)n(Cc3ccc(C(=O)NCCCCCC(=O)Oc4ccc(/C=C/C(=O)NCC(=O)N[C@H](C(=O)N[C@H](CCC(=O)OCC)C(=O)OCC)C(C)C)cc4OC)cc3)c2n1 [compound 1]	6.98
2. CCCCOc1nc(N)c2nc(O)n(Cc3ccc(C(=O)NCCCOCCOCCOCCCNC(=O)CC[C@@H](NC(=O)[C@@H](NC(=O)CNC(=O)/C=C/c4ccc(O)c(OC)c4)C(C)C)C(=O)OCC)cc3)c2n1 [compound 23]	< 5.00
3. CCCCOc1nc(N)c2nc(O)n(Cc3ccc(C(=O)NCCOCCNC(=O)CC[C@@H](NC(=O)[C@@H](NC(=O)CNC(=O)/C=C/c4ccc(O)c(OC)c4)C(C)C)C(=O)OCC)cc3)c2n1 [compound 2]	< 5.00

Now consider a different compound.
Which pEC50 reading was recorded for the compound CCOCc1nc2c(N)nc3ccccc3c2n1CC(C)(C)NC(=O)CCCCCNC(=O)CC[C@@H](NC(=O)[C@@H](NC(=O)CNC(=O)/C=C/c1ccc(O)c(OC)c1)C(C)C)C(=O)OCC [compound 33] ?
< 5.00

----------
experiment: Kinetic solubility in PBS (UHPLC, method of Hoelke et al.); assay type: physicochemical; conditions: PBS, aqueous with cosolvent or surfactant or cyclodextrin, kinetic from dmso stock, 5% DMSO
Measured solubility kinetic of individual entries
// units = µM; emit number, no label

Some entries whose results are on file:
1) CCCCOc1nc(N)c2nc(O)n(Cc3ccc(C(=O)NCCCOCCOCCOCCCNC(=O)CC[C@@H](NC(=O)[C@@H](NC(=O)CNC(=O)/C=C/c4ccc(O)c(OC)c4)C(C)C)C(=O)OCC)cc3)c2n1	38.6
2) CCCCOc1nc(N)c2nc(O)n(Cc3ccc(C(=O)NCCOCCOCCOCCn4cc(CNC(=O)CC[C@@H](NC(=O)[C@@H](NC(=O)CNC(=O)/C=C/c5ccc(O)c(OC)c5)C(C)C)C(=O)OCC)nn4)cc3)c2n1	35.4
3) CCCCOc1nc(N)c2nc(O)n(Cc3ccc(C(=O)NCCCCCC(=O)Oc4ccc(/C=C/C(=O)NCC(=O)N[C@H](C(=O)N[C@H](CCC(=O)OCC)C(=O)OCC)C(C)C)cc4OC)cc3)c2n1	1.9
4) CCCCOc1nc(N)c2nc(O)n(Cc3ccc(C(=O)NCCCCCCNC(=O)CC[C@@H](NC(=O)[C@@H](NC(=O)CNC(=O)/C=C/c4ccc(O)c(OC)c4)C(C)C)C(=O)OCC)cc3)c2n1	2.8

Which solubility kinetic reading was recorded for the molecule "CCOCc1nc2c(N)nc3ccccc3c2n1CC(C)(C)NC(=O)CCCCCNC(=O)CC[C@@H](NC(=O)[C@@H](NC(=O)CNC(=O)/C=C/c1ccc(O)c(OC)c1)C(C)C)C(=O)OCC" ?
404

----------
Target: human NOD2 (Homo sapiens, UniProt Q9HC29)
Construct: host or cells: HEK-Blue NOD2 (HEK293-derived)
Assay: HEK-Blue NOD2 NF-κB SEAP reporter assay
Type: cell-based
Conditions: HEK-Blue NOD2 cells
Source text: The building blocks and synthesized conjugates were initially assessed for their receptor-specific activities toward NOD2, TLR7 and TLR8 using the commercially available HEK-Blue NOD2, TLR7 and TLR8 reporter cell lines. […] Activation of NOD2/TLR7/TLR8, and subsequently of NF-κB, leads to the expression and secretion of SEAP, the levels of which can be quantified colorimetrically. […]
Measured EC50 of individual entries
// units = µM; emit number, no label

1) CCOCc1nc2c(NC(=O)CCCCCNC(=O)CC[C@@H](NC(=O)[C@@H](NC(=O)CNC(=O)/C=C/c3ccc(O)c(OC)c3)C(C)C)C(=O)OCC)nc3ccccc3c2n1CC(C)(C)O [compound 32]	7.2

Now consider a different compound.
Can you look up EC50 on human NOD2 (Homo sapiens, UniProt Q9HC29) for CCCCOc1nc(N)c2nc(O)n(Cc3ccc(C(=O)NCCCCCCNC(=O)CC[C@@H](NC(=O)[C@@H](NC(=O)CNC(=O)/C=C/c4ccc(O)c(OC)c4)C(C)C)C(=O)OCC)cc3)c2n1 [compound 24] ?
6.2

----------
Measured pEC50 of individual entries
target: human NOD2 (Homo sapiens); construct: host or cells: HEK-Blue NOD2 (HEK293-derived); test: HEK-Blue NOD2 NF-κB SEAP reporter assay; format: cell-based; settings: HEK-Blue NOD2 cells, 18 h, eight concentrations (1 nM to 10 μM), mean ± SEM
pEC50: −log10 of the molar value.

Some entries whose results are on file:
1. CCCCOc1nc(N)c2nc(O)n(Cc3ccc(C(=O)NCCOCCOCCNC(=O)CC[C@@H](NC(=O)[C@@H](NC(=O)CNC(=O)/C=C/c4ccc(O)c(OC)c4)C(C)C)C(=O)OCC)cc3)c2n1	< 5.00
2. CCCCOc1nc(N)c2nc(O)n(Cc3ccc(C(=O)NCCOCCOCCOCCn4cc(CNC(=O)CC[C@@H](NC(=O)[C@@H](NC(=O)CNC(=O)/C=C/c5ccc(O)c(OC)c5)C(C)C)C(=O)OCC)nn4)cc3)c2n1	< 5.00

Can you look up pEC50 on human NOD2 (Homo sapiens) for "CCCCOc1nc(N)c2nc(O)n(Cc3ccc(C(=O)NCCOCCOCCNC(=O)[C@@H](CCC(=O)OCC)NC(=O)[C@@H](NC(=O)CNC(=O)/C=C/c4ccc(O)c(OC)c4)C(C)C)cc3)c2n1" ?
< 5.00
